assay-system: Retinoic acid receptor RXR-alpha (Homo sapiens) (UniProt P19793)
Sequence (P19793 whole entry, looked up): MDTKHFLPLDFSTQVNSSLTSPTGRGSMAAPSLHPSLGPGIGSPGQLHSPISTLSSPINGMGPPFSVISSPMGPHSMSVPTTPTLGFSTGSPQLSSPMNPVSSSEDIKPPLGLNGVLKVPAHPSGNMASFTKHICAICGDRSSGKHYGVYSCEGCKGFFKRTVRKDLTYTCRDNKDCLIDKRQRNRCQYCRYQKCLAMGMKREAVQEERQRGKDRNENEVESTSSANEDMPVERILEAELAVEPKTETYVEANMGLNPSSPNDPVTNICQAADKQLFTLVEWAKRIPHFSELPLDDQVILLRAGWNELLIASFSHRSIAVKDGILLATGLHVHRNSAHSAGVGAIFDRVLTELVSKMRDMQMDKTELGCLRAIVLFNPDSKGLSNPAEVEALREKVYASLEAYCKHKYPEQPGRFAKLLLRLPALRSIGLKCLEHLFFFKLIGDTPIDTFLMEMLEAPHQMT
assay-notes: qHTS assay for small molecule antagonists of retinoid X receptor alpha signaling (AID 588546);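 further: cells stimulated with 9-cis-retinoic acid as agonist; on the % scale 0 is the no-effect control and ±100 the full control effect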
condition-notes: HEK293T RXRa-UAS-bla, beta-lactamase ratio, antagonist mode
Results filed as inconclusive are left out.
value-kind: max response (%)
Give the quantity in %, number only.

Known results for molecules:
CC(C)C=O
8.49
CCCCCCC(=O)O
7.92
Cc1ccc2cccnc2c1
0.426
Cc1cccc(C)c1
-1.87
O=[N+]([O-])c1ccc(Cl)cc1Cl
10.3

The recorded max response for O=[N+]([O-])c1ccccc1CCO is -8.97

The recorded max response for C=CCOC(=O)CCCCCCCC is -5.32

The recorded max response for Cc1ccccc1C(=O)O is 37.3

---

assay-notes: Cell Viability - LYMP2-002 (AID 977);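 further: compound exposure lasted 24 h at 37 °C; plate controls were DMSO only for no effect and 92 µM tetraoctylammonium bromide for full effect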
condition-notes: LYMP2-002 lymphoblastoid cell viability, qHTS; series mostly up to 92.2 µM
Records with an inconclusive call do not appear. Activity calls are given as the source filed them. Calls come from the whole dose curve; as a rule, active = well fitted cell-killing curve with a large enough effect; inconclusive = small, poorly fitted or top-dose-only effect; inactive = flat fitted curve, though single readings scatter.
// one of 1 = active, 0 = inactive, no free text

Task item: Check the results log: what was the call for CC(=C/C=C/C(C)=C/C=C/C=C(C)/C=C/C=C(C)/C=C/C(=O)O)/C=C/C(=O)O ?
Reply: 0

Task item: Check the results log: what was the call for CC(C)(O)C(=O)O ?
Reply: 0

Task item: Check the results log: what was the call for OC/C(Br)=C(\Br)CO ?
Reply: 0

Task item: Check the results log: what was the call for CC(=O)Nc1cccc(N)c1 ?
Reply: 0

Task item: Check the results log: what was the call for FC(F)(F)c1ccccc1Cl ?
Reply: 0

---

assay-system: Voltage-gated inwardly rectifying potassium channel KCNH2 (Homo sapiens)
assay-notes: qHTS Assay for Small Molecule Inhibitors of the Human hERG Channel Activity (AID 588834);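 further: U2OS cells transduced with hERG by BacMam; top concentration of the series differs between compounds; on the % scale 0 is the no-effect control and ±100 the full control effect; lower thallium flux fluorescence means stronger hERG block; nearly all actives have a fitted effect of over 50% in size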
condition-notes: U2OS BacMam hERG, FluxOR thallium flux fluorescence; series mostly up to 92.2 µM
Inconclusive results are not listed. The source made the active and inactive calls. Calls follow the shape of the dose curve; as a rule, active = well fitted inhibition curve with a large enough effect; inconclusive = small, poorly fitted or top-dose-only effect; inactive = flat fitted curve, though single readings scatter.
// one of 1.0 (active), 0.0 (inactive), no free text

CC(=O)OCc1ccco1
0.0
CCC(C)=O
0.0
O=C1C=CCCC1
0.0
CCOc1cccc(N)c1
0.0
O=C1CCC(=O)O1
0.0

Task item: Check the results log: what was the call for ICCc1ccccc1 ?
Reply: 0.0

Task item: Check the results log: what was the call for O=[N+]([O-])c1ccc(CCO)cc1 ?
Reply: 0.0

Task item: Check the results log: what was the call for c1ccc2[nH]cnc2c1 ?
Reply: 0.0

---

assay-notes: qHTS assay for small molecule antagonists of retinoid X receptor alpha signaling (AID 588546);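 further: cells stimulated with 9-cis-retinoic acid as agonist; on the % scale 0 is the no-effect control and ±100 the full control effect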
condition-notes: HEK293T RXRa-UAS-bla, beta-lactamase ratio, antagonist mode; measured here: W530 green channel, cytotoxicity proxy
Records with an inconclusive call do not appear.
In this section we review reported max response values for a set of compounds.
Give the quantity in %, number only.

The recorded max response for NC(=O)NC(N)=O is -1.82

The recorded max response for Nc1cccc(N)c1 is 1.75

The recorded max response for C=CCCCC is -3.19

The recorded max response for CC(=O)OCCC(C)C is -8.93

The recorded max response for N#Cc1ccccc1 is 0.37

The recorded max response for CC(=O)Nc1ccc(N)cc1 is 6.27

The recorded max response for C=CC(=O)OCCCC is 3.81

The recorded max response for CCCOCC(C)O (stereo not given) is -6.13

The recorded max response for COC(=O)CC#N is -3.78

The recorded max response for CC(O)COC(C)(C)C (stereo not given) is 0.664

The recorded max response for C1COC1 is -8.83

The recorded max response for O=C(O)c1cccc(Cl)c1Cl is -3.86

The recorded max response for CC1(N)CCC(C(C)(C)N)CC1 (stereo not given) is 4.37

The recorded max response for Cc1cc(C)cc([N+](=O)[O-])c1 is 5.59

The recorded max response for Cc1ccc([N+](=O)[O-])c(N)c1 is -20.5

The recorded max response for FC(F)(F)c1cccc(Cl)c1 is 3.78

---

assay-notes: Cell Viability - Jurkat (AID 426);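 further: potency means the concentration at half of the fitted maximal effect; cells exposed to compound for 40 hours at 37 °C before ATP read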
condition-notes: qHTS
Inconclusive results are not listed. Active and inactive are the calls of the source.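 The calls were made as follows: active = dose-dependent loss of cell ATP signal giving a full or clear fitted curve, ranked by lower potency value; inconclusive = weak partial curve or response only at the top dose; inactive = no loss of viability signal.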
// one of TRUE (active), FALSE (inactive), no free text

Here are 5 molecules together with their reported answers.
O=C(O)CCSSCCC(=O)O
FALSE
Cc1nc2ccc(Cl)cc2[nH]1
FALSE
CC(C)(c1cc(Br)c(OCC(Br)CBr)c(Br)c1)c1cc(Br)c(OCC(Br)CBr)c(Br)c1 (configuration not stated)
TRUE
COC(=O)CC#N
FALSE
O=[N+]([O-])c1ccc(NCCO)c(OCCO)c1
FALSE

Task item: Check the results log: what was the call for Cc1ccco1 ?
Reply: FALSE

Task item: Check the results log: what was the call for Cc1ccc(C)c([N+](=O)[O-])c1 ?
Reply: FALSE

Task item: Check the results log: what was the call for CC(C)C(C)C ?
Reply: FALSE

Task item: Check the results log: what was the call for CC(=O)c1nccs1 ?
Reply: FALSE

Task item: Check the results log: what was the call for Clc1ccccn1 ?
Reply: FALSE

Task item: Check the results log: what was the call for OCCO ?
Reply: FALSE

Task item: Check the results log: what was the call for CC1CCC2CC1C2(C)C (configuration not stated) ?
Reply: FALSE

---

assay-notes: Cell Viability - LYMP2-021 (AID 974);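 further: compound exposure lasts 24 hours at 37 °C; nearly all actives have a fitted effect of over 55% in size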
condition-notes: LYMP2-021 lymphoblastoid cells viability; series mostly up to 92.2 µM
Results filed as inconclusive are left out. Active and inactive are the calls of the source. Calls follow the shape of the dose curve; as a rule, active = well fitted cell-killing curve with a large enough effect; inconclusive = small, poorly fitted or top-dose-only effect; inactive = flat fitted curve, though single readings scatter.
// one of label 1 (active), label 0 (inactive), no free text

Here are 3 compounds together with their reported answers.
O=Nc1ccc(NO)cc1
label 1
NC(=O)c1ccccc1[N+](=O)[O-]
label 0
C=Cc1ccc(C=C)cc1
label 0

Task item: Check the results log: what was the call for O=[N+]([O-])c1c(Cl)cc(Cl)cc1Cl ?
Reply: label 0

Task item: Check the results log: what was the call for C=C(C)C(=O)OCCCCCC ?
Reply: label 0

Task item: Check the results log: what was the call for NC(=O)/N=N/C(N)=O ?
Reply: label 0

Task item: Check the results log: what was the call for CC(=O)OCc1ccco1 ?
Reply: label 0

Task item: Check the results log: what was the call for c1ccc2[nH]cnc2c1 ?
Reply: label 0

---

assay-notes: Cell Viability - SH-SY5Y (AID 544);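 further: cells exposed to compound for 40 hours; 0% = DMSO alone and -100% = 100 µM tamoxifen; nearly all actives have a fitted effect of over 55% in size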
condition-notes: SH-SY5Y neuroblastoma cell viability
Records with an inconclusive call do not appear. Active and inactive are the calls of the source. The call rests on the fitted dose curve; in most records, active means well fitted cell-killing curve with a large enough effect; inconclusive means small, poorly fitted or top-dose-only effect; inactive means flat fitted curve, though single readings scatter.
// one of TRUE for active, FALSE for inactive, no free text

Here are 5 compounds together with their reported answers.
Cc1ccc2c(c1[N+](=O)[O-])C(=O)c1ccccc1C2=O
FALSE
NC(=O)/N=N/C(N)=O
FALSE
C(=C/c1ccccc1)/c1ccccc1
FALSE
O=[N+]([O-])c1cc(C(F)(F)F)ccc1Cl
FALSE
Cc1ccc([N+](=O)[O-])c(N)c1
FALSE

Task item: Check the results log: what was the call for Nc1ccc(Cl)cc1[N+](=O)[O-] ?
Reply: FALSE

Task item: Check the results log: what was the call for Cc1cccc(C)c1 ?
Reply: FALSE

Task item: Check the results log: what was the call for CC/C(C)=N/O ?
Reply: FALSE

Task item: Check the results log: what was the call for Cc1ccc(Cl)cc1 ?
Reply: FALSE

Task item: Check the results log: what was the call for Cc1ccc(C)c(N)c1 ?
Reply: FALSE

Task item: Check the results log: what was the call for Nc1ccccc1S(=O)(=O)O ?
Reply: FALSE

Task item: Check the results log: what was the call for NC(=O)c1ccccc1[N+](=O)[O-] ?
Reply: FALSE

---

assay-notes: qHTS assay for small molecule agonists of retinoid X receptor alpha signaling (AID 588544)
condition-notes: HEK293T RXRa-UAS-bla, beta-lactamase reporter, 18 h; 530 nm emission
Inconclusive results are not listed.
value-kind: max response (%)
Give the quantity in %, number only.

Known results for compounds:
COc1cccc2sc(N)nc12
2.8
O=Cc1ccc(C(=O)O)cc1
15.4
NC(=O)NC(N)=O
6.09
CCCOCC(C)OCC(C)O (configuration not stated)
-0.324
CCCCN(CCO)CCCC
-2.59

The recorded max response for Cc1ccc(C#N)cc1 is 3.27

The recorded max response for CCOc1cc(OCC)c(C(C)=O)cc1OCC is 4.48

The recorded max response for Cc1cc(C)cc(O)c1 is 0.806

The recorded max response for CCCCCCCCN is -7.59

The recorded max response for CC(=O)c1cc(C)oc1C is -2.61

The recorded max response for CCCCC(CC)C(=O)O (configuration not stated) is 12.4

The recorded max response for Cc1ccccc1C(=O)O is -19.5

The recorded max response for CC(C)Nc1ccccc1 is -11

The recorded max response for CCCCCCCCC/C=C/CC1CC(=O)OC1=O (configuration not stated) is -0.831

The recorded max response for CC(C)c1ccccc1 is -7.95

The recorded max response for O=CNc1ccccc1 is -8.25
